Mushroom tyrosinase (Agaricus bisporus, UniProt O42713+Q00024+C7FF04+C7FF05) log10 IC50 data
Log scale reminder: IC50 in µM, then log10 taken.

CC1(C)S[C@@H]2[C@H](NC(=O)[C@H](N)c3ccc(O)cc3)C(=O)N2[C@H]1C(=O)O [AMOXICILLIN] ... 3.95
O=C(O)/C=C/c1ccc(Cn2ccnc2)cc1 [OZAGREL] ... 3.54
OC1COC(O)C(O)C1O (racemic) ... 2.00
S=C1NCC(c2ccccc2)O1 (stereo not given) ... 1.62

Next compound, please.
What log10 IC50 value was documented for this compound, CC1(C)C=Cc2c(cc3c(c2O)C(=O)CC(c2ccc(O)cc2O)O3)O1 (stereo not given) [DALENIN] ?
1.27
